Where do the numbers come from? From the Immune Epitope Database (IEDB).

Target: HLA-A*11:01
Experiment: IEDB peptide-MHC binding, purified MHC/competitive/radioactivity; filed as Kd, often an IC50 or EC50 that approximates it; bounds were set here for any values at or beyond the usual limits of such assays
Conditions: source organism: Hepatitis C virus (isolate 1)
Measured Endpoint: Kd

Lookup result for HSKKKCDEL ; measured Kd: ≥ 37.3 µM

* * *

Target: HLA-A*02:03
Test: IEDB peptide-MHC binding, purified MHC/direct/fluorescence; filed as Kd, often an IC50 or EC50 that approximates it; bounds were set here for any values at or beyond the usual limits of such assays
Details: source organism: Encephalitozoon cuniculi GB-M1
Measured Endpoint: Kd

SPLPITLKY | ≥ 20 µM

Now, please, on to the next sequence.
Lookup result for EAYCALLCK ; measured Kd: ≥ 20 µM

* * *

Target: HLA-B*58:01
Experiment: IEDB peptide-MHC binding, purified MHC/direct/fluorescence; filed as Kd, often an IC50 or EC50 that approximates it; bounds were set here for any values at or beyond the usual limits of such assays
Settings: source organism: Mammarenavirus juninense
Measured Endpoint: Kd (µM)
Numbers only, in µM.

Lookup result for KLIADSIDF ; measured Kd: 1.62

* * *

Target: HLA-A*03:01
Assay: IEDB peptide-MHC binding, purified MHC/competitive/fluorescence; filed as Kd, often an IC50 or EC50 that approximates it; bounds were set here for any values at or beyond the usual limits of such assays
Details: source organism: Cryptosporidium parvum Iowa II
Measured Endpoint: Kd

Lookup result for DLAQDPMLI ; measured Kd: ≥ 20 µM

* * *

Biological target: HLA-A*01:01
Experiment: IEDB peptide-MHC binding, purified MHC/direct/fluorescence; filed as Kd, often an IC50 or EC50 that approximates it; bounds were set here for any values at or beyond the usual limits of such assays
Settings: source organism: Escherichia coli O6
Measured Endpoint: pKd
Answers are plain numbers, as −log10 of the molar value.

Lookup result for AHGWSTFYL ; measured pKd: 5.50

* * *

Target: HLA-A*69:01
Assay: IEDB peptide-MHC binding, purified MHC/direct/fluorescence; filed as Kd, often an IC50 or EC50 that approximates it; bounds were set here for any values at or beyond the usual limits of such assays
Settings: source organism: Mycobacterium tuberculosis variant bovis
Measured Endpoint: Kd

Lookup result for TPREAPYEL ; measured Kd: ≥ 20 µM

* * *

Target: HLA-A*23:01
Assay: IEDB peptide-MHC binding, purified MHC/direct/fluorescence; filed as Kd, often an IC50 or EC50 that approximates it; bounds were set here for any values at or beyond the usual limits of such assays
Conditions: source organism: Francisella tularensis subsp. tularensis FSC033
Measured Endpoint: Kd

GET /values?item= NTIEELSGY &system= HLA-A*23:01 returns Kd: ≥ 20 µM

* * *

Target: HLA-A*11:01
Experiment: IEDB peptide-MHC binding, purified MHC/competitive/fluorescence; bounds were set here for any values at or beyond the usual limits of such assays
Details: source organism: Vaccinia virus
Measured Endpoint: IC50 (µM)
Numbers only, in µM.

Lookup result for GTEKEFLRY ; measured IC50: 11.5

* * *

Molecular target: HLA-A*03:01
Experiment: IEDB peptide-MHC binding, purified MHC/competitive/radioactivity; filed as Kd, often an IC50 or EC50 that approximates it; bounds were set here for any values at or beyond the usual limits of such assays
Conditions: source organism: Lassa virus Josiah
Measured Endpoint: pKd
Numbers only, as −log10 of the molar value.

Lookup result for ENAVWDQYK ; measured pKd: 4.90
